Measured target: Kir6.2/SUR2A S1020P (Rattus norvegicus)
Sequence (P70673 whole entry, stated change not applied): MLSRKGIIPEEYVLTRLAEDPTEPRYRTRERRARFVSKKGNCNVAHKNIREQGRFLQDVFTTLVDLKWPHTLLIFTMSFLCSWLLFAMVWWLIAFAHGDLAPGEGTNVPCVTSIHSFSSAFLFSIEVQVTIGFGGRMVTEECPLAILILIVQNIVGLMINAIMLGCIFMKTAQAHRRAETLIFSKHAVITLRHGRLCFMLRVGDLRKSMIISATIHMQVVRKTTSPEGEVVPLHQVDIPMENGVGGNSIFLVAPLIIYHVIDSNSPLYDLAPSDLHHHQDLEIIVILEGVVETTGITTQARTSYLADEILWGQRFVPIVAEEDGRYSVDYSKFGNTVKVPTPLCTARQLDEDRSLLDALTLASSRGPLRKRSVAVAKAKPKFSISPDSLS
Sequence (Q63563 whole entry S1016P partner): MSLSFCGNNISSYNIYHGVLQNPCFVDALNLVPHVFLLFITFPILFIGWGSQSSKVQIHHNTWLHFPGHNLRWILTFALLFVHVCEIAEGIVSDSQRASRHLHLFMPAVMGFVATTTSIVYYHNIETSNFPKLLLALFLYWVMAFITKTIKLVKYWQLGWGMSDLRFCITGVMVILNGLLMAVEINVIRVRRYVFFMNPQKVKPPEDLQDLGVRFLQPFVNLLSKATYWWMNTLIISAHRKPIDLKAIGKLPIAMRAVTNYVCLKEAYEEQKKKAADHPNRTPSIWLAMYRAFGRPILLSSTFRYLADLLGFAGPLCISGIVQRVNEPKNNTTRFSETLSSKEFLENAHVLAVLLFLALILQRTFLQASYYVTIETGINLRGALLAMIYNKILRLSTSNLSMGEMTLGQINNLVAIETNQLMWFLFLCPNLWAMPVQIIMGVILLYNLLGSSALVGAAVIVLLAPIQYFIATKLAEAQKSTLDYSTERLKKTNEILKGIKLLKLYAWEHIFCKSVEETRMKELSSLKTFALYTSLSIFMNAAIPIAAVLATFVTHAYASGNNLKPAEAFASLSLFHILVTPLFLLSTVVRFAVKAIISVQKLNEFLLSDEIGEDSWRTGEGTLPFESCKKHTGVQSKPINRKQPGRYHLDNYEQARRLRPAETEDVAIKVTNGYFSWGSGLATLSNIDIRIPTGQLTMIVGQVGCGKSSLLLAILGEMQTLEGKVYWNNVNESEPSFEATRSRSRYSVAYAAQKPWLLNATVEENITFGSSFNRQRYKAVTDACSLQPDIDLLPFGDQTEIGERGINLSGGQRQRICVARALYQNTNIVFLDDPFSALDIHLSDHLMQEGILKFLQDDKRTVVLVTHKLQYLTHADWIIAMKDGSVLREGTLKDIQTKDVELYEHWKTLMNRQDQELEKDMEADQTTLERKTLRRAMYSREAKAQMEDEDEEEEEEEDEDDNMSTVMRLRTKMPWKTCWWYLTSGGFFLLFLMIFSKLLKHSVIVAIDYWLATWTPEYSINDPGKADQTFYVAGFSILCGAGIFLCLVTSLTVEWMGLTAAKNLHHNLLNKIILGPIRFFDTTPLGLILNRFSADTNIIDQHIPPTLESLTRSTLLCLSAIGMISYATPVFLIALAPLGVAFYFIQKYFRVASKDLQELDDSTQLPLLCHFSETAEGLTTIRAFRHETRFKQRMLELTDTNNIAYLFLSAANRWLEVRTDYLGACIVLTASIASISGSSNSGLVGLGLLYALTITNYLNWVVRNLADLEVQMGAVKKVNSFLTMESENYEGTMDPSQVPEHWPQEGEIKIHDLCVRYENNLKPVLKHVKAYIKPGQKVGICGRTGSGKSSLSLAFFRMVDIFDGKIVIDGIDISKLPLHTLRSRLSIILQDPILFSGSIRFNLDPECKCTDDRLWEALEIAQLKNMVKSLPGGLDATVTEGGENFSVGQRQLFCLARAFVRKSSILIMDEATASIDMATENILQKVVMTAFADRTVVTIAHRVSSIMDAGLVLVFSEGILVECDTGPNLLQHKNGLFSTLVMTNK
Test: Inside-out patch clamp, Cantú mutant S1020P SUR2A with Kir6.2
Experimental setup: S1020P SUR2A/Kir6.2, outward current
Metric: IC50 (µM)
// return numeric value only (unit: µM, not printed)

Compound	Units symbol	IC50
CC(C)NCC(O)COc1ccc(CCOCC2CC2)cc1 (stereo not shown)	µM	29.5
CC(C)OC(=O)CCC/C=C\C[C@@H]1[C@@H](/C=C/[C@@H](O)COc2cccc(C(F)(F)F)c2)[C@H](O)C[C@@H]1O	µM	11
CN(CCOc1ccc(CC2SC(=O)NC2=O)cc1)c1ccccn1 (stereo not shown)	µM	25.4

Query: So what does the record say about IC50 for CC(NCCc1ccc(O)cc1)C(O)c1ccc(O)cc1 (stereo not shown) ?
Result: 6.77
